measurement target: SmAlkD2 (Streptococcus mutans Clarke (ATCC 25175)) (UniProt A0A0M3KL00)
Sequence: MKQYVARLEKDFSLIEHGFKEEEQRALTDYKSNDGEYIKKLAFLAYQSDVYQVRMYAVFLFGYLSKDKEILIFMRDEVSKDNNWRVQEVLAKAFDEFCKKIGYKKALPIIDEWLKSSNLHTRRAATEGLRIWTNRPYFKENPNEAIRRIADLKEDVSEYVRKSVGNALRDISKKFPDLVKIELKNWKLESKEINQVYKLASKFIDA
protocol details: EMSA
experimental context: EMSA: 100 pM 32P-DNA, 0-50 uM protein, 20 mM Tris-HCl pH 7.5, 100 mM NaCl, 5% glycerol, 2 mM DTT, 0.1 mM EDTA, 0.1 mg/mL BSA, 20 C, 30 min; 5% native gel
endpoint label: Kd
Field note: include the unit after the figure.

# return recorded Kd for entry GACCACTACACCGATTCCTTACAAC (double strand) [G•C-DNA 25-mer] 67 µM
